target: Mitogen-activated protein kinase 7 (Homo sapiens); experiment: ERK5 transactivation activators in reporter cells, primary screen, cell-based, HTS (AID 1508626); conditions: HeLa Gal4-ERK5 transactivation, 18 h, at 5 µM, stronger effect = higher value;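 further: luciferase driven by Gal4-ERK5 fusion binding five Gal4 sites before minimal TATA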
Calls of active or inactive are those of the source.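 How the source made its calls: active means luciferase signal above three times the same-plate solvent-only control wells; inactive means the rest.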
measuredProperty: luciferase signal

Consider the following illustrative entries.
compound="COC(=O)C1=C(C)NC(C)=C(C(=O)OCCN(C)Cc2ccccc2)C1c1cccc([N+](=O)[O-])c1 (centres undefined)" measuredresult="48 AU (inactive)"
compound="CC1C2[C@]3(CC[C@H]1C)CCC1(C)[C@@]2(C=CC2[C@@]4(C)CCC(=O)C(C)(C)C4CC[C@]21C)OC3=O (some centres undefined)" measuredresult="100 AU (inactive)"
compound="COC1[C@H](O)[C@@H](O)C(O)[C@H](O)[C@H]1O (some centres undefined)" measuredresult="136 AU (inactive)"

Could you now consider this next compound?
Specify the recorded luciferase signal for COc1c(-c2coc3cc4c(cc3c2=O)CC(OC(C)=O)C(C)(C)O4)ccc2c1C=CC(C)(C)O2 (centres undefined) , system: Mitogen-activated protein kinase 7 (Homo sapiens).
56 AU (inactive)

====

assay: circadian clock period modulators, cell-based, LOPAC library, luminescence reporter (AID 2774); conditions: circadian reporter cells, at 7 µM, actives lie on both sides;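 further: values are relative to mean of DMSO wells on each plate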
Calls of active or inactive are those of the source. No rule for the calls is given here.
measuredProperty: period change

compound=CN=C(N)NCCC[C@H](N)C(=O)O measuredproperty="period change" measuredresult="-0.035 h (inactive)"

Each compound below has a reported value. Please supply its period change.
1. NCCCCN
2. COC(=O)C1=C(C)NC(C)=C(C(=O)OC)C1c1ccccc1[N+](=O)[O-]
3. COc1cc2c(c(OC)c1OC)-c1ccc(OC)c(=O)cc1[C@@H](NC(C)=O)CC2

1: 0.01 h (inactive); 2: -0.175 h (inactive); 3: -0.41 h (inactive)

Each compound below has a reported value. Please supply its period change.
1. CN=C(NC#N)Nc1ccc(C2=NNC(=O)CC2C)cc1 (stereo not drawn)
2. NC(N)=NCCCCN=C(N)N
3. O=c1[nH]c2cc(Cl)c(Cl)cc2[nH]c1=O
4. O=C(O)c1cc2cc(F)ccc2[nH]1
5. CCOC(=O)c1cnc2c(cnn2CC)c1NN=C(C)C
6. CC(C)NCC(O)COc1cccc2ccccc12 (stereo not drawn)
7. NC(=O)c1cccc(N)c1

1. 0.035 h (inactive)
2. 0.195 h (inactive)
3. 0.15 h (inactive)
4. 0.04 h (inactive)
5. 0.065 h (inactive)
6. -0.115 h (inactive)
7. 0.16 h (inactive)

Each compound below has a reported value. Please supply its period change.
1. CC/C(=C(\c1ccccc1)c1ccc(OCCN(C)C)cc1)c1ccccc1
2. C1COC(NC(C2CC2)C2CC2)=N1

["0.115 h (inactive)", "0.03 h (inactive)"]

====

Can you tell me cell count for the items I'm about to list?
assay: sensitizers of A549 cells to miR-34 induction, primary screen, imaging, A549 dox-inducible miR-34, nuclei and caspase counts (AID 1347080); settings: A549 miR-34 inducible, Hoechst nuclei count, 48 h; measured here: total cells with miR-34 induction; stronger effect = lower value
Give bare numbers.

molecule="CN1CCN(C2Cc3ccccc3Sc3ccc(Cl)cc32)CC1 (configuration not stated)" measuredproperty="cell count" measuredresult=5640
molecule=C[C@]12CC[C@H]3C(=CCc4cc(O)ccc43)[C@@H]1CCC2=O measuredproperty="cell count" measuredresult=7380
molecule="CN1CCCN(C(c2ccccc2)c2ccc(Cl)cc2)CC1 (configuration not stated)" measuredproperty="cell count" measuredresult=7610
molecule=FCOC(C(F)(F)F)C(F)(F)F measuredproperty="cell count" measuredresult=8640

Each molecule below has a reported value. Please supply its cell count.
1. NC(=O)CCCCC1CCSS1 (configuration not stated)
2. C#C[C@]1(OC(C)=O)CC[C@H]2[C@@H]3CCC4=C[C@@H](OC(C)=O)CC[C@@H]4[C@H]3CC[C@@]21C
3. NC(=O)OCC(O)COc1ccc(Cl)cc1 (configuration not stated)
4. CC(C)CCCC(C)N (configuration not stated)
5. O=C(O[C@@H]1Cc2c(O)cc(O)cc2O[C@@H]1c1cc(O)c(O)c(O)c1)c1cc(O)c(O)c(O)c1
6. CC[C@H](c1ccc(O)cc1)[C@@H](CC)c1ccc(O)cc1
7. C=C(C)C1CC=C(C(=O)O)CC1 (configuration not stated)

1: 8370; 2: 9000; 3: 8110; 4: 11300; 5: 5870; 6: 7720; 7: 9720

Tell us which cell count value is on record for "Cc1[nH]ccc2c1[nH]c1cc(=O)ccc12"
6490

====

experiment: liver-stage malaria parasite growth inhibition, primary screen, cell-based, HepG2, luciferase luminescence, HepG2 viability (AID 624349);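 further: 100% = mean of DMSO negative control wells on the same plate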; settings: P. berghei liver stage in HepG2, luciferase luminescence, concentration not given here; measured here: HepG2 viability without parasites
Can you tell me viability for the items I'm about to list?
Form field: result (number plus unit)

molecule=C[C@@H]1[C@H](O)[C@@H](C)/C=C/C=C/C=C/C=C/C=C/C=C/C=C/[C@H](O[C@@H]2O[C@H](C)[C@@H](O)[C@H](N)[C@@H]2O)C[C@@H]2O[C@](O)(C[C@@H](O)C[C@@H](O)[C@H](O)CC[C@@H](O)C[C@@H](O)CC(=O)O[C@H]1C)C[C@H](O)[C@H]2C(=O)O measuredresult=129%
molecule="CN1[C@@H]2CC[C@H]1CC(OC(=O)[C@H](CO)c1ccccc1)C2 (some centres not stated)" measuredresult=43.8%
molecule=O=C(O[C@@H]1Cc2c(O)cc(O)cc2O[C@@H]1c1cc(O)c(O)c(O)c1)c1cc(O)c(O)c(O)c1 measuredresult=76.9%

Each molecule below has a reported value. Please supply its viability.
1. CC(C)Cn1cnc2c(N)nc3ccccc3c21
2. CC(C)C[C@H]1C(=O)N2CCC[C@H]2[C@]2(O)O[C@](NC(=O)[C@@H]3C=C4c5cccc6[nH]c(Br)c(c56)C[C@H]4N(C)C3)(C(C)C)C(=O)N12
3. C[C@H](CCC(=O)O)[C@H]1CC[C@H]2[C@@H]3CC[C@@H]4C[C@H](O)CC[C@]4(C)[C@H]3CC[C@]12C
4. NCCCNCCSP(=O)(O)O
5. O=C(Nc1cccc2c(=O)cc(-c3nn[nH]n3)oc12)c1ccc(OCCCCc2ccccc2)cc1
6. NCCCCC(=O)O
7. NCCNCCNCCN

62.5%
88.9%
101%
110%
94.5%
71.9%
163%

====

assay: ovarian cancer cell viability with rucaparib, profiling panel, oncology-focused library, rucaparib conditional (AID 1508598); conditions: patient-derived ovarian cancer cells, CellTiter-Glo viability, 144 h; at 0.313 µM; OCI-P5x cells; with rucaparib 20 µM; stronger effect = lower value; 100% = cells with rucaparib alone
Activity calls are given as the source filed them.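 How the source made its calls: active means normalized viability below 100% at a tested concentration; inactive means the rest.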
Can you tell me viability for the items I'm about to list?

Consider the following illustrative entries.
compound=CNC(=O)c1ccccc1Sc1ccc2c(/C=C/c3ccccn3)n[nH]c2c1 measuredresult="101% (inactive)"
compound=CNC(=O)c1cc(Oc2ccc(NC(=O)Nc3ccc(Cl)c(C(F)(F)F)c3)cc2)ccn1 measuredresult="144% (inactive)"
compound=CN(C)c1nc(N(C)C)nc(N(C)C)n1 measuredresult="108% (inactive)"
compound=O=C(NOCC1CC1)c1ccc(F)c(F)c1Nc1ccc(I)cc1Cl measuredresult="106% (inactive)"

Each compound below has a reported value. Please supply its viability.
1. CC/C(=C(\c1ccccc1)c1ccc(OCCN(C)C)cc1)c1ccccc1
2. Nc1cccc2c1CN(C1CCC(=O)NC1=O)C2=O (stereo not given)
3. Cc1cc(O)c2c(c1)C(=O)c1cccc(O)c1C2=O
4. Nc1nc(Cl)nc2c1ncn2[C@@H]1O[C@H](CO)[C@@H](O)[C@@H]1F
5. Cc1ccc(-n2nc(C(C)(C)C)cc2NC(=O)Nc2ccc(OCCN3CCOCC3)c3ccccc23)cc1

97.5% (active)
129% (inactive)
101% (inactive)
57.8% (active)
97.2% (active)

Each compound below has a reported value. Please supply its viability.
1. CC(C)n1c(/C=C/[C@@H](O)C[C@@H](O)CC(=O)O)c(-c2ccc(F)cc2)c2ccccc21
2. CCCC(CCC)C(=O)O
3. Cc1ccc(Nc2nccc(N(C)c3ccc4c(C)n(C)nc4c3)n2)cc1S(N)(=O)=O
4. O=C(CCc1ccc(O)cc1)c1c(O)cc(O)cc1O
5. CCN(CC)CCNC(=O)c1c(C)[nH]c(/C=C2\C(=O)Nc3ccc(F)cc32)c1C
6. Cc1nc(Nc2ncc(C(=O)Nc3c(C)cccc3Cl)s2)cc(N2CCN(CCO)CC2)n1

8.26% (active)
118% (inactive)
100% (inactive)
109% (inactive)
93.2% (active)
17% (active)

Each compound below has a reported value. Please supply its viability.
1. CN(N=O)C(=O)N[C@@H]1[C@@H](O)[C@H](O)[C@@H](CO)O[C@@H]1O
2. O=C(CCCCCCC(=O)Nc1ccccc1)NO
3. FC(F)c1nc2ccccc2n1-c1nc(N2CCOCC2)nc(N2CCOCC2)n1
4. COc1c(C)c2c(c(O)c1C/C=C(\C)CCC(=O)O)C(=O)OC2

98.9% (active)
61.2% (active)
88.2% (active)
85.4% (active)

Each compound below has a reported value. Please supply its viability.
1. CC(C)C[C@H](NC(=O)[C@H](Cc1ccccc1)NC(=O)c1cnccn1)B(O)O
2. O=C(O[C@@H]1Cc2c(O)cc(O)cc2O[C@@H]1c1cc(O)c(O)c(O)c1)c1cc(O)c(O)c(O)c1
3. COc1c(C)c2c(c(O)c1C/C=C(\C)CCC(=O)OCCN1CCOCC1)C(=O)OC2
4. COc1cc(Nc2c(C#N)cnc3cc(OCCCN4CCN(C)CC4)c(OC)cc23)c(Cl)cc1Cl
5. Nc1ncn([C@H]2C[C@H](O)[C@@H](CO)O2)c(=O)n1
6. C#Cc1cccc(Nc2ncnc3cc(OCCOC)c(OCCOC)cc23)c1

1. 1.91% (active)
2. 94.4% (active)
3. 89.1% (active)
4. 80.8% (active)
5. 84.8% (active)
6. 109% (inactive)
